IC50, mGluR5 receptor (pig) (Sus scrofa): measured values
Give bare numbers, in µM.

Below: 5 compounds and their reported IC50.
CN(CCc1cccc(F)c1)C(=O)C#Cc1cccc(Cl)c1 [Example 221] : 0.008
Cc1ccccc1CCNC(=O)C#Cc1cccc(Cl)c1 [Example 223] : 0.013
CN(CCc1cccs1)C(=O)C#Cc1cccc(Cl)c1 [Example 245] : 0.011
CC(Cc1ccccc1)N(C)C(=O)C#Cc1cccc(Cl)c1 (stereo not drawn) [Example 241] : 0.013
O=C(C#Cc1cccc(Cl)c1)NCCn1cccn1 [Example 231] : 0.14

Report IC50 for each item below.
1. Cc1ccccc1CCN(C)C(=O)C#Cc1cccc(Cl)c1 [Example 226]
2. COc1ccccc1CCN(C)C(=O)C#Cc1cccc(Cl)c1 [Example 240]
3. CC(Cc1cccnc1)N(C)C(=O)C#Cc1cccc(Cl)c1 (stereo not drawn) [Example 247]
4. O=C(C#Cc1cccc(Cl)c1)NCCc1cccc(C(F)(F)F)c1 [Example 219]

[0.008, 0.012, 0.14, 0.45]

Report IC50 for each item below.
1. CN(CCc1cccc(C(F)(F)F)c1)C(=O)C#Cc1cccc(Cl)c1 [Example 222]
2. Cc1cccc(CCN(C)C(=O)C#Cc2cccc(Cl)c2)c1 [Example 227]
3. O=C(C#Cc1cccc(Cl)c1)NCCc1cccnc1 [Example 235]

0.075
0.015
0.007

---

Record form. Attribute: inhibition at 10 µM. Fill in for each entry.
biological target: mGluR5 receptor (pig) (Sus scrofa, UniProt I3LUI7); construct: 450 μg protein from brain homogenate is incubated with 5 nM ^3[H]-MPEP; from tissue; host or cells: pig brain halves without medulla, cerebellum and pons; experiment: [3H]-MPEP bond in the mGluR5 receptor bond assay (pig brain homogenate); assay type: binding; conditions: 10 μM test compound; 5 nM [3H]-MPEP; 450 μg protein pig brain homogenate; 60 min room temperature
Sequence (I3LUI7 19-1212): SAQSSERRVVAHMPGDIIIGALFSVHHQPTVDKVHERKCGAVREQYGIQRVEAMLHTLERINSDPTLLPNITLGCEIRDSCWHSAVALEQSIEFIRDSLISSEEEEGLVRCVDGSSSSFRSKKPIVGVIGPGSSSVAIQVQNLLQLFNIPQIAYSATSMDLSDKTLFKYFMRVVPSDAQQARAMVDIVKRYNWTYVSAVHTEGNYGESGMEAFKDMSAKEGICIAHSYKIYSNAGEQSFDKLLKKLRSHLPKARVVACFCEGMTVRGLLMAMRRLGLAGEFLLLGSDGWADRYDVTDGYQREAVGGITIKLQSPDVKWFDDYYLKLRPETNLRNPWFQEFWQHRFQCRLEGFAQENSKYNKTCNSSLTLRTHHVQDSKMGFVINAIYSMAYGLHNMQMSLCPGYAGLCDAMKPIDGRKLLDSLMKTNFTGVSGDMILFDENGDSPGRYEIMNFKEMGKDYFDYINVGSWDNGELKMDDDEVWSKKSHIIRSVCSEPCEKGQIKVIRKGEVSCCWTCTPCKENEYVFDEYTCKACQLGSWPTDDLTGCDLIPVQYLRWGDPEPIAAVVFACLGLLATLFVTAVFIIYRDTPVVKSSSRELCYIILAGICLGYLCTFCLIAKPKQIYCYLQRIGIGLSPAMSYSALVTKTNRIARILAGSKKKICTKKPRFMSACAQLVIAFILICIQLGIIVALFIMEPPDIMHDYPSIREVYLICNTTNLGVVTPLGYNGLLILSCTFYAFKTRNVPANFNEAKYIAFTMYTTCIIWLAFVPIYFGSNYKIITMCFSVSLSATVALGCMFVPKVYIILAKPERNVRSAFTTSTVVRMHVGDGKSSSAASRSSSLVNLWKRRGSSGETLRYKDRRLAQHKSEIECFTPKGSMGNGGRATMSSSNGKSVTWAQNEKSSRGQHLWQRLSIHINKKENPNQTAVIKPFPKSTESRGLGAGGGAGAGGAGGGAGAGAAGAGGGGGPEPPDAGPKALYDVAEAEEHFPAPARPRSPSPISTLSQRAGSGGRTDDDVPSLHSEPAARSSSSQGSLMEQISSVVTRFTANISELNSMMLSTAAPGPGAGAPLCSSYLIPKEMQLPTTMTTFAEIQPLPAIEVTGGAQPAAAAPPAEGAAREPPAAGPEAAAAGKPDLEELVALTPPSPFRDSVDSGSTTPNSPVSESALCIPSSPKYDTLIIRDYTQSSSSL
Give bare numbers, in %.

Below: 5 molecules and their reported inhibition at 10 µM.
Cc1ccc(CCNC(=O)C#Cc2cccc(C#N)c2)cc1 : 96
COc1cccc(C#CC(=O)N(C)CCc2ccccc2)c1 : 70
CN(CCc1ccccc1)C(=O)C#Cc1ccccc1F : 90
Cc1cc(C#CC(=O)NCCc2ccccc2)ccc1F : 69
COc1cccc(C#CC(=O)NCCc2ccc(F)cc2)c1 : 85

Report inhibition at 10 µM for each item below.
1. O=C(C#Cc1ccccc1F)NCCc1cccs1
2. COc1ccccc1CCNC(=O)C#Cc1ccc(F)cc1F
3. O=C(C#Cc1ccc(F)cc1F)NCCc1cccs1

1: 67; 2: 31; 3: 33

Report inhibition at 10 µM for each item below.
1. Cc1cccc(C#CC(=O)NCCc2ccc(Cl)c(Cl)c2)c1
2. O=C(C#Cc1ccccc1)NCCc1ccccn1
3. O=C(C#Cc1ccccc1)NCCc1ccccc1 [Example 83, N-phenethyl-3-phenylpropiolamide]
4. Cc1cc(C#CC(=O)NCCc2ccc(Cl)cc2)ccc1F
5. O=C(C#Cc1ccccc1F)NCCc1ccccn1

[105, 81, 91, 44, 70]

Report inhibition at 10 µM for each item below.
1. O=C(C#Cc1ccc(F)cc1)NCCc1cccc(Cl)c1
2. O=C(C#Cc1cccs1)NCCc1ccc(Cl)cc1

1. 64
2. 65

---

molecular target: mGluR5 receptor (pig) (Sus scrofa); construct: 450 μg protein from brain homogenate is incubated with 5 nM ^3[H]-MPEP; from tissue; host or cells: pig brain halves without medulla, cerebellum and pons; assay: [3H]-MPEP bond in the mGluR5 receptor bond assay (pig brain homogenate); assay type: binding; conditions: 10 μM test compound; 5 nM [3H]-MPEP; 450 μg protein pig brain homogenate; 60 min room temperature
Record form. Attribute: inhibition at 10 µM. Fill in for each entry.
Numbers only, in %.

COc1ccccc1CCNC(=O)C#Cc1ccccc1F [Example 194] : 81
O=C(C#Cc1ccc(F)cc1)NCCc1ccc(Cl)cc1 [Example 140] : 53
COc1ccccc1CCNC(=O)C#Cc1cccc(C#N)c1 [Example 191] : 96
Cc1cccc(C#CC(=O)NCCc2c[nH]c3ccccc23)c1 [Example 57] : 91
O=C(C#Cc1ccc(F)cc1)NCCc1ccccn1 [Example 20] : 54
Cc1cccc(C#CC(=O)NCCc2cccc(Cl)c2)c1 [Example 69] : 107
N#Cc1cccc(C#CC(=O)NCC(c2ccccc2)c2ccccc2)c1 [Example 98] : 40
O=C(C#Cc1cccs1)NCCc1ccccc1 [Example 85] : 79
O=C(C#Cc1ccccc1)NCCc1cccc(Cl)c1 [Example 65] : 97
Cc1cccc(C#CC(=O)NCCc2ccccn2)c1 [Example 18] : 90

Report inhibition at 10 µM for each item below.
1. COc1cccc(C#CC(=O)NCCc2cccc(Cl)c2)c1 [Example 58]
2. O=C(C#Cc1ccccc1F)NCCc1ccc(F)cc1 [Example 151]

[91, 66]

---

target: mGluR5 receptor (pig) (Sus scrofa); construct: 450 μg protein from brain homogenate is incubated with 5 nM ^3[H]-MPEP; from tissue; host or cells: pig brain halves without medulla, cerebellum and pons; assay: [3H]-MPEP bond in the mGluR5 receptor bond assay (pig brain homogenate); type: binding; conditions: 10 μM test compound; 5 nM [3H]-MPEP; 450 μg protein pig brain homogenate; 60 min room temperature
reported.property: inhibition at 10 µM (%)
Answers are plain numbers, in %.

Below: 8 molecules and their reported inhibition at 10 µM.
N#Cc1cccc(C#CC(=O)NCCc2ccccc2)c1 : 86
N#Cc1cccc(C#CC(=O)NCCc2ccc(Cl)cc2)c1 : 91
CN(CCc1ccccc1)C(=O)C#Cc1ccc(F)cc1F : 69
Cc1ccc(CCNC(=O)C#Cc2cccs2)cc1 : 75
COc1cccc(C#CC(=O)NCCc2ccc(Cl)cc2)c1 : 65
O=C(C#Cc1ccc(F)cc1)NCCc1ccc(F)cc1 : 42
COc1cccc(C#CC(=O)NCCc2ccc(C)cc2)c1 : 57
Cc1ccc(CCNC(=O)C#Cc2ccccc2)cc1 : 64

Report inhibition at 10 µM for each item below.
1. Cc1cccc(C#CC(=O)NCCc2ccccc2)c1 [Example 84, N-phenethyl-3-m-tolylpropiolamide]
2. O=C(C#Cc1ccccc1F)NCCc1cccc(Cl)c1
3. COc1cccc(C#CC(=O)NCCc2ccccc2OC)c1

1: 89; 2: 79; 3: 83

Report inhibition at 10 µM for each item below.
1. O=C(C#Cc1ccccc1)NCCc1ccc(F)cc1
2. Cc1cccc(C#CC(=O)NCCc2ccc(Cl)cc2)c1

[90, 91]

Report inhibition at 10 µM for each item below.
1. COc1ccccc1CCNC(=O)C#Cc1cccs1
2. O=C(C#Cc1cccs1)NCCc1cccs1

1. 85
2. 76
